# Test system: SW480
# ASSAY_REMARKS: cell viability (CellTiter-Glo) relative to plate median (fraction of plate median); higher = more viable cells
# EXPERIMENTAL_CONDITIONS: 5 µM; treatment time 24 h; reporter: 7TFP
Can you tell me cell viability for the items I'm about to list?

Item: Nc1ccccc1C(=O)CC(N)C(=O)O (stereo not drawn) | System: SW480 | cell viability: 0.994

Observed cell viability, SW480, CCC(Cc1c(I)cc(I)c(N)c1I)C(=O)O (stereo not drawn) : 1.07

Record for `CN(C)c1nc(N(C)C)nc(N(C)C)n1` under target or system SW480: cell viability reported as 1.05

Tested on SW480: C=C(C)[C@@H]1C[C@H](O)[C@]2(C(=O)O)CC[C@]3(C)[C@H](C[C@H]4OC(=O)C[C@@H](O)[C@]5(C)[C@@H]4[C@@]3(C)CC[C@H]5C(=C)C)[C@@H]12 [22alpha-hydroxychiisanogenin (11)] . Observed cell viability: 0.984

Param item: `CN(C)C(=N)NC(=N)N` ; param system: SW480; output cell viability: 1.01

Assay SW480, sample `Nc1ccc(S(=O)(=O)Nc2ccc(Cl)nn2)cc1` , cell viability read: 1.08

Item `Cc1ccc(N(CC2=NCCN2)c2cccc(O)c2)cc1` ; assay system SW480; cell viability reported as 1.02

Record `CO[C@@H]1[C@H](O)[C@@H](C)O[C@@H](OC[C@H]2[C@@H]3O[C@H]3/C=C/C(=O)[C@@](C)(O)C[C@H](C)[C@H](O[C@@H]3O[C@H](C)C[C@H](OC)[C@H]3O)[C@@H](C)/C=C/C(=O)O[C@@H]2C)[C@@H]1OC` / SW480, cell viability recorded as 1.01

----------
# Test system: HCT116
# ASSAY_REMARKS: cell viability (CellTiter-Glo) relative to plate median (fraction of plate median); higher = more viable cells
# EXPERIMENTAL_CONDITIONS: 5 µM; treatment time 24 h; reporter: TCF4/Wnt
QUANTITY_MEASURED: cell viability
I'd appreciate a reply containing only the number, no unit.

# cell viability measured on HCT116 for item `COC(=O)[C@H]1[C@H]2C[C@H]3c4[nH]c5ccccc5c4CCN3C[C@@H]2CC[C@@H]1O` = 0.984

# value of cell viability, HCT116, item `COc1ccc(-c2coc3cc(OC(C)=O)cc(OC(C)=O)c3c2=O)cc1` = 0.994

Kindly note: HCT116, COC(=O)C[C@H]1C2(C)CC34OC5(C)O[C@@]6([C@H](OC)C(OC(=O)C(C)C)[C@]7(C)C(/C(=C(/OC)C(C)C)C(=O)O[C@H]7c7ccoc7)[C@@]6(O5)[C@H](OC)[C@@]3(OC)C2OC(C)=O)[C@]14C (some centres not stated) , cell viability value reported: 0.916

The molecule `Nc1nc(F)nc2c1ncn2[C@@H]1O[C@H](COP(=O)(O)O)[C@@H](O)[C@@H]1O` on HCT116: cell viability was 0.942

cell viability for HCT116 with input CN(CCOc1ccc(CC2SC(=O)NC2=O)cc1)c1ccccn1 (configuration not stated) equals 0.894

Entry C[C@@H]1CC[C@@]23CCC4(C)[C@@](C=CC5[C@@]6(C)CCC(=O)C(C)(C)C6CC[C@]54C)(OC2=O)C3[C@H]1C (some centres not stated) under HCT116 had cell viability of 0.991

Measured cell viability for this entry `CC(C)[C@@H](C)/C=C/[C@@H](C)[C@H]1CC[C@H]2C3=CC=C4C[C@@H](O)CC[C@]4(C)[C@H]3CC[C@]12C` on HCT116: 1.03
